target: T1, human Sdc2 (human, UniProt P34741 19-144, limits assumed); test: Kd (human Sdc2), summary table of the mAbs
T1 construct: Antigen of the Octet tandem binning, loaded on biosensors at 100 nM; also called huSdc2; hSdc2
T1 sequence (P34741 19-144 limits assumed): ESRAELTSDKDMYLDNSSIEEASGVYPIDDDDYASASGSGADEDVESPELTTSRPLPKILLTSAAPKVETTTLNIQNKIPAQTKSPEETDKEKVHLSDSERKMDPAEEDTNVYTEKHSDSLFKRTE
pKd: −log10 of the molar value.
# pKd values compiled below
measurement type: pKd

TP-43329F (antibody, human IgG1, kappa, V domains shown) VH: QVQLVESGGGVVQPGGSLRLSCAASGFTFNIYAMHWVRQAPGKGLEWVARIGSKSSYYATYYADSVKGRFTISRDNSKNTLYLQMNSLRTEDTAVYYCVSGKGDWGQGTLVTVSS VL: DVVMTQSPLSLPVTLGQPASISCRSSQSLLAGDGKTYLNWFQQRPGQSPRRLIYLVSKLDSGVPDRFSGSGSGTDFTLKISRVEAEDVGVYYCWQGTHFPWTFGAGTRLEIKR
9.10
R4M-P3-A12 (antibody, human IgG1, kappa, V domains shown) VH: EVQLVESGGGVVQPGGSLRLSCAASGFTFSDHYMSWIRQAPGKGLEWVSYLSGSGTSIYYADSVKGRFTISRDNAKKSLYLQMNSLRAEDTAVYYCARVGPAAGNAFDIWGQGTMVTVSS VL: QSVLTQPPSASGTPGQRVTISCSGSSSNIGSNYVYWYQQLPGTAPKLLIYRNNQRPSGVPDRFSGSKSGTSASLAITGLQAEDEADYYCQSYDSSLSGVVFGGGTKLTVLR
7.85
